target: SCRIB_2, Q14160; test: holdup assay; parameters: key: below the threshold = too weak to quantify, mostly under pKd 3.1 to 4; settings: plain residues with an end cap or a label only (N-terminal biotin on a linker: ado-ado)
Sequence (Q14160 857-960): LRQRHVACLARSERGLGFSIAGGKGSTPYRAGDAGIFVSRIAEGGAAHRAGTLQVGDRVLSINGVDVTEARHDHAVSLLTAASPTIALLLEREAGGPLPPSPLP
Reported Property: pKd

As a guide, the following entries are already answered.
PAPSSGKDYV [CLDN1, O95832] | below the threshold
DDPSTAETVL [ABCA7, Q8IZY2] | below the threshold
TKGPRGPTRV [SAPCD1, Q5SSQ6] | below the threshold
YNNCLEILRV [DCAF7, P61962] | below the threshold

Quick request: pKd for each listed item, please.
1. EKKTLIGIKL [GOT1L1, Q8NHS2]
2. QGPVETESVV [SLC45A4, Q5BKX6]

## Output
1: below the threshold; 2: 3.67
